Sourced from the supplement of paper PMC13380429

Test system: Vero E6 infected with SARS-CoV-2
Test: inhibition of SARS-CoV-2 cytopathic effect; higher = more antiviral protection, active = above 15
Conditions: 100 nM; 48 h
inhibition of SARS-CoV-2 cytopathic effect values by entry
Express the result in % but write the number alone.

Examples from the recorded data:
CC(C)C(=O)SCCCCC[C@H](NC(=O)OC(C)(C)C)C(=O)NC12CC3CC(CC(C3)C1)C2 ... -0.22
CC(=O)N[C@H]1[C@H]([C@H](O)[C@H](O)CO)OC(C(=O)O)=C[C@@H]1NC(=N)N [zanamivir] ... -0.26
CC(=O)O/N=C1\C(=O)N(Cc2cc(Cl)ccc2Cl)c2ccc(Cl)cc21 ... 0.49
O=C(CCCN1CCN(c2ccccn2)CC1)c1ccc(F)cc1 [azaperone] ... -6.03
O=c1cc(-c2ccc(O)cc2)oc2cc(O)cc(O)c12 [apigenin] ... -1.73

Problem: What does the data say about its inhibition of SARS-CoV-2 cytopathic effect? Entry: C[C@@H]1CC(=O)NN=C1c1ccc(NN=C(C#N)C#N)cc1 [levosimendan]
Result: 0.3

Problem: What does the data say about its inhibition of SARS-CoV-2 cytopathic effect? Entry: CCC(=O)OCN1C(=O)C=CC1=O
Result: 0.41

Problem: What does the data say about its inhibition of SARS-CoV-2 cytopathic effect? Entry: CC(C)NCCCn1c(Sc2cc3c(cc2I)OCO3)nc2c(N)ncnc21
Result: -0.95

Problem: What does the data say about its inhibition of SARS-CoV-2 cytopathic effect? Entry: Cc1cc(N2CCOCC2)cc2[nH]c(-c3c(NC[C@@H](O)c4cccc(Cl)c4)cc[nH]c3=O)nc12
Result: -2.39

* * *

Test system: Vero E6 infected with SARS-CoV-2
Assay: inhibition of SARS-CoV-2 cytopathic effect; higher = more antiviral protection, active = above 15
Settings: 8.33 nM; 48 h
Observed property: inhibition of SARS-CoV-2 cytopathic effect (%)
Express the result in % but write the number alone.

CC(=O)OCC(=O)[C@@]1(O)CC[C@H]2[C@@H]3CCC4=CC(=O)C=C[C@]4(C)[C@@]3(Cl)[C@@H](Cl)C[C@@]21C [dichlorisone-acetate] ... -2.25
CN1C(C)(C)CCCC1(C)C ... -0.7
Cc1nn(C)c2c1C(c1ccc(C(F)(F)F)cc1)C(C#N)=C(N)O2 (centres undefined) ... -1.78

From here, focus on the item given below.
Problem: What does the data say about its inhibition of SARS-CoV-2 cytopathic effect? Entry: C[C@H](CCC(=O)O)[C@H]1CC[C@H]2[C@@H]3C(=O)C[C@@H]4CC(=O)CC[C@]4(C)[C@H]3CC(=O)[C@]12C [dehydrocholate-acid]
Result: -4.18

* * *

System: Vero E6 infected with SARS-CoV-2
Test: inhibition of SARS-CoV-2 cytopathic effect; higher = more antiviral protection, active = above 15
Conditions: 833.33 nM; 48 h
Observed property: inhibition of SARS-CoV-2 cytopathic effect (%)
Express the result in % but write the number alone.

Examples from the recorded data:
CC(=O)[C@H]1CC[C@H]2[C@@H]3CC[C@H]4C[C@H](O)CC[C@]4(C)[C@H]3C(=O)C[C@]12C ... -1.55
Cn1nccc1Nc1nccc(-c2ccn([C@H](CO)c3ccc(Cl)c(F)c3)c(=O)c2)n1 ... -5.82
C[C@H](CCC(=O)NCCS(=O)(=O)O)[C@H]1CC[C@H]2[C@@H]3[C@@H](O)C[C@@H]4C[C@H](O)CC[C@]4(C)[C@H]3CC[C@]12C ... -3.74

Problem: What does the data say about its inhibition of SARS-CoV-2 cytopathic effect? Entry: O=C1CCC(N2C(=O)c3ccccc3C2=O)C(=O)N1 (centres undefined) [thalidomide]
Result: -1.68
